meta.source: ChEMBL document CHEMBL3045122

System: Candida albicans
assay overview: Antifungal activity against Candida albicans assessed as growth inhibition after 48 hr by tube dilution method
Format: functional
endpoint name: -logMIC
Write no unit; give the number alone.

Observe how each entry below is paired with its result.
given smiles: Cc1ccccc1NC(=O)c1ccc(/N=N\c2c[nH]c3ccccc23)cc1
-logMIC: 1.45
//
given smiles: Cc1ccc(NC(=O)c2ccc(/N=N\c3c[nH]c4ccccc34)cc2)cc1
-logMIC: 1.45
//
given smiles: O=C(Nc1ccccc1F)c1ccccc1/N=N\c1c[nH]c2ccccc12
-logMIC: 1.46

Exercise: For the molecule `Cc1ccc(C)c(NC(=O)c2ccc(/N=N\c3c[nH]c4ccccc34)cc2)c1` , what -logMIC is on record?
Key: 1.47

Exercise: Query: -logMIC; subject: `Cc1ccc(NC(=O)c2ccccc2/N=N\c2c[nH]c3ccccc23)cc1`
Key: 1.45

Exercise: Which -logMIC is listed for `O=C(Nc1ccc(Cl)cc1)c1ccccc1/N=N\c1c[nH]c2ccccc12` ?
Key: 1.48

Exercise: Recorded -logMIC for `Cc1ccc(C)c(NC(=O)c2ccccc2/N=N\c2c[nH]c3ccccc23)c1` , please?
Key: 1.47

Exercise: Param item = `Cc1cccc(NC(=O)c2ccccc2/N=N\c2c[nH]c3ccccc23)c1C` ; retrieve measured -logMIC.
Key: 1.47

Exercise: Return reported -logMIC; argument: `O=C(Nc1ccccc1[N+](=O)[O-])c1ccc(/N=N\c2c[nH]c3ccccc23)cc1`
Key: 1.49

Exercise: Value lookup for -logMIC; key = `COc1ccccc1NC(=O)c1ccc(/N=N\c2c[nH]c3ccccc23)cc1`
Key: 1.47

* * *

Tested on: Bacillus subtilis
assay overview: Antibacterial activity against Bacillus subtilis assessed as growth inhibition after 24 hr by tube dilution method
Type: functional
Below is a list of entries, each paired with its recorded -logMIC value.
Number only, no unit.

given smiles: O=C(Nc1ccccc1Cl)c1ccc(/N=N\c2c[nH]c3ccccc23)cc1
target entity: Bacillus subtilis
endpoint name: -logMIC
numeric result: 1.48

given smiles: Cc1ccc(NC(=O)c2ccc(/N=N\c3c[nH]c4ccccc34)cc2)c(C)c1
target entity: Bacillus subtilis
endpoint name: -logMIC
numeric result: 1.47

given smiles: Cc1ccc(C)c(NC(=O)c2ccccc2/N=N\c2c[nH]c3ccccc23)c1
target entity: Bacillus subtilis
endpoint name: -logMIC
numeric result: 1.77

Exercise: So what's the measured -logMIC for this one? `CCn1cc(C(=O)O)c(=O)c2cc(F)c(N3CCNCC3)cc21`
Key: 2.61

Exercise: I am curious: what -logMIC value has been reported for `O=C(Nc1ccccc1F)c1ccccc1/N=N\c1c[nH]c2ccccc12` ?
Key: 1.46

Exercise: Which -logMIC value belongs to `Cc1cccc(NC(=O)c2ccc(/N=N\c3c[nH]c4ccccc34)cc2)c1` ?
Key: 1.75

Exercise: Which measured -logMIC value corresponds to `O=C(Nc1ccccc1[N+](=O)[O-])c1ccc(/N=N\c2c[nH]c3ccccc23)cc1` ?
Key: 1.79

Exercise: Reported -logMIC for `O=C(Nc1ccc([N+](=O)[O-])cc1)c1ccc(/N=N\c2c[nH]c3ccccc23)cc1` : what is it?
Key: 1.49

* * *

compounds and their reported -logMIC
Test system: Escherichia coli
assay overview: Antibacterial activity against Escherichia coli assessed as growth inhibition after 24 hr by tube dilution method
Type: functional
API note: the answer field is a bare number with no unit suffix.

Past entries and their recorded results:
given smiles: O=C(Nc1ccccc1)c1ccc(/N=N\c2c[nH]c3ccccc23)cc1
target entity: Escherichia coli
numeric result: 1.44
--
given smiles: O=C(Nc1ccccc1[N+](=O)[O-])c1ccc(/N=N\c2c[nH]c3ccccc23)cc1
target entity: Escherichia coli
numeric result: 1.49
--
given smiles: O=C(Nc1cccc(Cl)c1)c1ccccc1/N=N\c1c[nH]c2ccccc12
target entity: Escherichia coli
numeric result: 1.78
--
given smiles: Cc1ccccc1NC(=O)c1ccc(/N=N\c2c[nH]c3ccccc23)cc1
target entity: Escherichia coli
numeric result: 1.45

Attention now shifts to the item below.
Exercise: For Escherichia coli, provide -logMIC of `O=C(Nc1ccccc1Cl)c1ccc(/N=N\c2c[nH]c3ccccc23)cc1` please.
Key: 1.78

* * *

Tested on: MCF7
assay overview: Cytotoxicity against Homo sapiens (human) MCF7 cells assessed as growth inhibition after 72 hr by MTT assay
Assay type: functional, cell-based
Criterion: IC50 strictly less than 0.1 uM/ml. Met: Condition met. Not met: Condition not met.

Solved cases (4 shown):
given smiles: Cc1cccc(NC(=O)c2ccccc2/N=N\c2c[nH]c3ccccc23)c1
label class: Condition not met
--
given smiles: O=C(Nc1ccccc1F)c1ccc(/N=N\c2c[nH]c3ccccc23)cc1
label class: Condition met
--
given smiles: Cc1ccc(NC(=O)c2ccc(/N=N\c3c[nH]c4ccccc34)cc2)c(C)c1
label class: Condition met
--
given smiles: Cc1ccc(C)c(NC(=O)c2ccccc2/N=N\c2c[nH]c3ccccc23)c1
label class: Condition not met

Exercise: Say whether its IC50 is strictly beneath 0.1 uM/ml. Entry: `Cc1ccc(C)c(NC(=O)c2ccc(/N=N\c3c[nH]c4ccccc34)cc2)c1`
Key: Condition met

Exercise: Is IC50 of `O=C(Nc1ccc(Cl)cc1)c1ccccc1/N=N\c1c[nH]c2ccccc12` strictly below 0.1 uM/ml?
Key: Condition not met

Exercise: Strictly below 0.1 uM/ml in IC50? `O=C(Nc1ccccc1Cl)c1ccccc1/N=N\c1c[nH]c2ccccc12`
Key: Condition not met

Exercise: # strict comparison: is reported IC50 < 0.1 uM/ml? input = `O=C(Nc1ccccc1)c1ccccc1/N=N\c1c[nH]c2ccccc12`
Key: Condition met

Exercise: Threshold test, IC50 < 0.1 uM/ml: `O=C(Nc1ccc([N+](=O)[O-])cc1)c1ccc(/N=N\c2c[nH]c3ccccc23)cc1`
Key: Condition met

Exercise: Criterion: IC50 strictly below 0.1 uM/ml. Is it met by `Cc1cccc(NC(=O)c2ccc(/N=N\c3c[nH]c4ccccc34)cc2)c1C` ?
Key: Condition not met

* * *

System: Bacillus subtilis
assay overview: Antibacterial activity against Bacillus subtilis assessed as growth inhibition after 24 hr by tube dilution method
Type: functional
endpoint name: -logMIC
Write the value as a bare number.

Reference set, count: 4
given smiles: O=C(Nc1cccc(Cl)c1)c1ccc(/N=N\c2c[nH]c3ccccc23)cc1
numeric result: 1.48
--
given smiles: Cc1ccc(NC(=O)c2ccccc2/N=N\c2c[nH]c3ccccc23)c(C)c1
numeric result: 1.47
--
given smiles: O=C(Nc1ccc(Cl)cc1)c1ccc(/N=N\c2c[nH]c3ccccc23)cc1
numeric result: 1.48
--
given smiles: Cc1ccc(C)c(NC(=O)c2ccc(/N=N\c3c[nH]c4ccccc34)cc2)c1
numeric result: 1.47

Exercise: Would you kindly share the measured -logMIC for `Cc1cccc(NC(=O)c2ccccc2/N=N\c2c[nH]c3ccccc23)c1C` ?
Key: 1.47

* * *

Listed compounds paired with reported -logMIC
Test system: Bacillus subtilis
assay overview: Antibacterial activity against Bacillus subtilis assessed as growth inhibition after 24 hr by tube dilution method
Format: functional
Please reply with the number alone, leaving off any unit.

Exercise: Quick one: -logMIC of `O=C(Nc1ccccc1F)c1ccc(/N=N\c2c[nH]c3ccccc23)cc1` ?
Key: 1.46

Exercise: Could you tell me which -logMIC is on file for `COc1ccccc1NC(=O)c1ccc(/N=N\c2c[nH]c3ccccc23)cc1` ?
Key: 1.47

* * *

Known -logMIC of a selection of compounds
System: Escherichia coli
assay overview: Antibacterial activity against Escherichia coli assessed as growth inhibition after 24 hr by tube dilution method
Type: functional
Please state the value as a number alone, without comment.

Worked set:
given smiles: O=C(Nc1cccc([N+](=O)[O-])c1)c1ccc(/N=N\c2c[nH]c3ccccc23)cc1
-logMIC: 1.49

given smiles: Cc1ccc(NC(=O)c2ccccc2/N=N\c2c[nH]c3ccccc23)cc1
-logMIC: 1.45

given smiles: Cc1ccc(NC(=O)c2ccc(/N=N\c3c[nH]c4ccccc34)cc2)cc1
-logMIC: 1.45

given smiles: Cc1ccc(NC(=O)c2ccccc2/N=N\c2c[nH]c3ccccc23)c(C)c1
-logMIC: 1.47

API: the following record is the query input.
Exercise: -logMIC lookup needed for `O=C(Nc1ccccc1F)c1ccccc1/N=N\c1c[nH]c2ccccc12` , thanks.
Key: 1.76

* * *

Listing: IC50 of selected compounds
Tested on: MCF7
assay overview: Cytotoxicity against Homo sapiens (human) MCF7 cells assessed as growth inhibition after 72 hr by MTT assay
Type: functional, cell-based
Answer format: numeric, uM/ml implied, no suffix.

given smiles: O=c1[nH]cc(F)c(=O)[nH]1
target entity: MCF7
numeric result: 0.0052

given smiles: O=C(Nc1cccc([N+](=O)[O-])c1)c1ccc(/N=N\c2c[nH]c3ccccc23)cc1
target entity: MCF7
numeric result: 0.0519

given smiles: O=C(Nc1ccccc1F)c1ccccc1/N=N\c1c[nH]c2ccccc12
target entity: MCF7
numeric result: 0.1397

given smiles: O=C(Nc1cccc(Cl)c1)c1ccccc1/N=N\c1c[nH]c2ccccc12
target entity: MCF7
numeric result: 0.1067

given smiles: O=C(Nc1ccc(Cl)cc1)c1ccc(/N=N\c2c[nH]c3ccccc23)cc1
target entity: MCF7
numeric result: 0.1067

Exercise: Which measured IC50 belongs to `O=C(Nc1ccccc1)c1ccc(/N=N\c2c[nH]c3ccccc23)cc1` , tested on MCF7?
Key: 0.1471

Exercise: Recall the recorded IC50 for `Cc1cccc(NC(=O)c2ccc(/N=N\c3c[nH]c4ccccc34)cc2)c1` with MCF7 and state it.
Key: 0.0734

Exercise: Enter reported IC50 observed with MCF7 for `Cc1ccc(NC(=O)c2ccccc2/N=N\c2c[nH]c3ccccc23)c(C)c1`
Key: 0.1087

Exercise: Item: `Cc1ccc(NC(=O)c2ccccc2/N=N\c2c[nH]c3ccccc23)cc1` Test system: MCF7 Read-out: IC50 Value: ?
Key: 0.0791

Exercise: Query IC50 on MCF7 for `O=C(Nc1ccccc1[N+](=O)[O-])c1ccc(/N=N\c2c[nH]c3ccccc23)cc1`
Key: 0.1013
